FYI, the data here is from ChEMBL document CHEMBL3396991.

Biological target: Mu-type opioid receptor (Homo sapiens)
Sequence (P35372 whole entry): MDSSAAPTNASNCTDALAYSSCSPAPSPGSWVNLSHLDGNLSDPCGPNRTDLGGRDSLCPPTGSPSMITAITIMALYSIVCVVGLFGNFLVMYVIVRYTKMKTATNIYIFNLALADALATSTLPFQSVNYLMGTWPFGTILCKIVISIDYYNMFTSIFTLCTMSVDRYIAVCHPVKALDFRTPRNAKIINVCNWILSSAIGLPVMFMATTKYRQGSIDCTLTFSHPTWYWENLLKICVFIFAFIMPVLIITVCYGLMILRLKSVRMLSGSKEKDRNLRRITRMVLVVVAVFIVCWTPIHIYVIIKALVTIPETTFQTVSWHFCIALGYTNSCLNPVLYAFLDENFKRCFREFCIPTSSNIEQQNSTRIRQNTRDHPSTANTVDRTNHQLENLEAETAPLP
Assay: Displacement of [3H]diprenorphine from human recombinant mu opioid receptor expressed in HEK cells after 60 mins
Parameter measured: Ki (nM)

                  compound_structure_string  data_value
0  CC(C)[C@@H](CN1CC[C@@](C)(c2cccc(O)c2)[C@@H](C)C1)NC(=O)[C@H]1Cc2ccc(O)cc2CN1CCF        13.2
1  CC(C)[C@@H](CN1CC[C@@](C)(c2cccc(O)c2)[C@@H](C)C1)NC(=O)[C@H]1Cc2ccc(O)cc2CN1CCCF        19.6
2  CC(C)[C@@H](CN1CC[C@@](C)(c2cccc(O)c2)[C@@H](C)C1)NC(=O)[C@H]1Cc2ccc(OCCCF)cc2CN1        57.5
3  CC(C)[C@@H](CN1CC[C@@](C)(c2cccc(O)c2)[C@@H](C)C1)NC(=O)[C@H]1Cc2ccc(OCCF)cc2CN1        63.1

###

In this section, each of the compounds is paired with its reported pKi.
Target: Delta-type opioid receptor (Homo sapiens)
Sequence (P41143 whole entry): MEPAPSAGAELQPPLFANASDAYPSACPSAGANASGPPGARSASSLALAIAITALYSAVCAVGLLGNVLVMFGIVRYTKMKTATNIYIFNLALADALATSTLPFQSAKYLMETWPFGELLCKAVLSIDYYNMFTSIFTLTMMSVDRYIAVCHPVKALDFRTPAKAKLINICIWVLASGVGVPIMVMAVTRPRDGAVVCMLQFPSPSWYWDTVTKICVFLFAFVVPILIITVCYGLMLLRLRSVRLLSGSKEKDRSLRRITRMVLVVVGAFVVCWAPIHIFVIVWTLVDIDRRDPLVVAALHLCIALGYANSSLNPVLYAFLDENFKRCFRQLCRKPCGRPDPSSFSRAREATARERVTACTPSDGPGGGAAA
Assay: Displacement of [3H]DADLE from human recombinant delta opioid receptor expressed in HEK cells after 60 mins
pKi: −log10 of the molar value.
Parameter measured: pKi

In [3]: df
Out[3]:
                  compound_structure_string  parameter_measured  data_value
0  CC(C)[C@@H](CN1CC[C@@](C)(c2cccc(O)c2)[C@@H](C)C1)NC(=O)[C@H]1Cc2ccc(O)cc2CN1CCF                 pKi        7.14
1  CC(C)[C@@H](CN1CC[C@@](C)(c2cccc(O)c2)[C@@H](C)C1)NC(=O)[C@H]1Cc2ccc(O)cc2CN1CCCF                 pKi        6.59
2  CC(C)[C@@H](CN1CC[C@@](C)(c2cccc(O)c2)[C@@H](C)C1)NC(=O)[C@H]1Cc2ccc(OCCF)cc2CN1                 pKi        7.09
3  CC(C)[C@@H](CN1CC[C@@](C)(c2cccc(O)c2)[C@@H](C)C1)NC(=O)[C@H]1Cc2ccc(OCCCF)cc2CN1                 pKi        7.14

###

Target: UniProt P34975
Sequence (P34975 whole entry): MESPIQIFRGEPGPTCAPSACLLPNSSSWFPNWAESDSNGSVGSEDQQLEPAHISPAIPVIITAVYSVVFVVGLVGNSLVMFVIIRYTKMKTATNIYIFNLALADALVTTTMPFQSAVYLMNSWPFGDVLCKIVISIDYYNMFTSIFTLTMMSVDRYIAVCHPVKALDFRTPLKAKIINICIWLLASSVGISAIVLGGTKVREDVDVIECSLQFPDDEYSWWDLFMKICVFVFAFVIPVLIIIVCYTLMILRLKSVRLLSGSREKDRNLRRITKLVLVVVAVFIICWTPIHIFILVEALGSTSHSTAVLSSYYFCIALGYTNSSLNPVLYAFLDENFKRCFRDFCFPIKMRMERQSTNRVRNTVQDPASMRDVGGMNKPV
Experiment: Displacement of [3H]U69593 from rat recombinant kappa opioid receptor expressed in CHO cells after 60 mins
pKi: −log10 of the molar value.
# cutoff 9 applies to pKi; >= gives Met, < gives Not met

>>> print(df.to_string())
                                   compound  qualitative_label
0  CC(C)[C@@H](CN1CC[C@@](C)(c2cccc(O)c2)[C@@H](C)C1)NC(=O)[C@H]1Cc2ccc(O)cc2CN1CCF            Not met
1  CC(C)[C@@H](CN1CC[C@@](C)(c2cccc(O)c2)[C@@H](C)C1)NC(=O)[C@H]1Cc2ccc(OCCF)cc2CN1            Not met
2  CC(C)[C@@H](CN1CC[C@@](C)(c2cccc(O)c2)[C@@H](C)C1)NC(=O)[C@H]1Cc2ccc(O)cc2CN1 [JDTIC]                Met
3  CC(C)[C@@H](CN1CC[C@@](C)(c2cccc(O)c2)[C@@H](C)C1)NC(=O)[C@H]1Cc2ccc(OCCCF)cc2CN1            Not met
